- protocol: Experimental water solubility, thermodynamic solubility method
- Assay type: physicochemical
- cond: water, Experimentally determined water solubility of the hydrochloride salt
endpoint: solubility (mg/mL)

                                   molecule    endpoint  readoutvalue
0  COc1ccccc1CCN1CCN(CCc2ccccc2OC)CC1.Cl.Cl [Compound 6b]  solubility          33.3
1  Cl.Cl.Clc1ccccc1CCN1CCN(CCc2ccccc2Cl)CC1 [Compound 6e]  solubility            25
